Sourced from the supplement of paper PMC8728848

Target: Gal(b1-4)GlcNAc(b1-3)Gal(b1-4)GlcNAc(b1-3)Gal(b1-4)GlcNAc(b1-2)Man(a1-3)[Gal(b1-4)GlcNAc(b1-3)Gal(b1-4)GlcNAc(b1-3)Gal(b1-4)GlcNAc(b1-2)Man(a1-6)]Man(b1-4)GlcNAc(b1-4)[Fuc(a1-6)]GlcNAc
Assay: glycan array binding signal (z-score within array); higher = stronger binding
Settings: glycan notation: IUPAC condensed, linker removed
Many of the other results were omitted from the sample, so the strongest signals are more common in it than they were.
Property: glycan array binding signal (z-score)
Numbers only.

- Binder: "Cohesin-marm-DC-ASGPR-CRD (protein) LDITSHHHHHHDDLDAVRIKVDTVNAKPGDTVRIPVRFSGIPSKGIANCDFVYSYDPNVLEIIEIEPGDIIVDPNPDKSFDTAVYPDRKIIVFLFAEDSGTGAYAITKDGVFATIVAKVKEGAPNGLSVIKFVEVGGFANNDLVEQKTQFFDGGVNVGDTTEPATPTTPVTTPTTTDDLDAASCPINWVEHQGSCYWFSRSGKTWPEAERYCQLENTHLVVINSREEQNFVQAHLGSAYTWMGLSDPEGVWKWVDGTDYSSGFQNWKPGQPDDWQGHGLGGGEDCAHFHPDGRWNDDVCQRSYHWVCEAGLTQASQDSH"
  Property: "glycan array binding signal (z-score)"
  Value: -0.304
- Binder: "SynCAM (Mus musculus) (protein) MASAVLPSGSQCAAAAAVAAAAAPPGLRLRLLLLLLSAAALIPTGDGQNLFTKDVTVIEGEVATISCQVNKSDDSVIQLLNPNRQTIYFRDFRPLKDSRFQLLNFSSSELKVSLTNVSISDEGRYFCQLYTDPPQESYTTITVLVPPRNLMIDIQKDTAVEGEEIEVNCTAMASKPATTIRWFKGNKELKGKSEVEEWSDMYTVTSQLMLKVHKEDDGVPVICQVEHPAVTGNLQTQRYLEVQYKPQVHIQMTYPLQGLTREGDAFELTCEAIGKPQPVMVTWVRVDDEMPQHAVLSGPNLFINNLNKTDNGTYRCEASNIVGKAHSDYMLYVYDPPTTIPPP"
  Property: "glycan array binding signal (z-score)"
  Value: 1.48

Could you now look at the following binder, please?
Q: Name the recorded glycan array binding signal (z-score) for CpGal16 (Clavelina picta) (protein) MAKMITNYVGKRIECIMVATDMMSTVFSLASATGDLPFYINFRQRENSIVMNTRVHGKWQYEKSQSSGGMNFYEPFRLVVEVRPSVFKVTVSTMGEEDGITFNLQYSQITIKPDEIVAMHLGYCNLRSELLVTDL .
A: 0.953
